# measuredTarget: Purified ovine COX-2 (Ovis aries, UniProt P79208)
# Sequence (P79208 17-603): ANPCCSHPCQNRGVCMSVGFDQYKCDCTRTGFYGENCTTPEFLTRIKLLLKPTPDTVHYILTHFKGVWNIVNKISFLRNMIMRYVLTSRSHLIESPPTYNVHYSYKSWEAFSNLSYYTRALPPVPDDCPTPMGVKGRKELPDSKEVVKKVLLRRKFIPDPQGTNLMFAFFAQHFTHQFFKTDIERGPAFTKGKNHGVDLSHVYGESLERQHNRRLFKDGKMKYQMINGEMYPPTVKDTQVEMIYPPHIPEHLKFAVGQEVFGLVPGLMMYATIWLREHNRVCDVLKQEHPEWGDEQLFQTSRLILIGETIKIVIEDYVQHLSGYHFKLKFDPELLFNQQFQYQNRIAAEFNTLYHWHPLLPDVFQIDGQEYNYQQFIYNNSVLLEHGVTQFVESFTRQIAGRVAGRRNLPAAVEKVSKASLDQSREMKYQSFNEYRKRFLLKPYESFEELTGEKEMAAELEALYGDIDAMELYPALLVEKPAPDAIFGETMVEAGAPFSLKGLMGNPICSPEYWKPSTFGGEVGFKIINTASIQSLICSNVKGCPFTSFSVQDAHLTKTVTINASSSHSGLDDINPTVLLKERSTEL
reportedMetric: IC50

molecule="CC1=C(CC(=O)O)c2cc(F)ccc2/C1=C\\c1ccc([S+](C)[O-])cc1 (stereo not shown) [Sulindac sulfoxide, sulindac]" reportedmetric=IC50 endpointresult="> 300 µM"

----------
Protein target, amino acids: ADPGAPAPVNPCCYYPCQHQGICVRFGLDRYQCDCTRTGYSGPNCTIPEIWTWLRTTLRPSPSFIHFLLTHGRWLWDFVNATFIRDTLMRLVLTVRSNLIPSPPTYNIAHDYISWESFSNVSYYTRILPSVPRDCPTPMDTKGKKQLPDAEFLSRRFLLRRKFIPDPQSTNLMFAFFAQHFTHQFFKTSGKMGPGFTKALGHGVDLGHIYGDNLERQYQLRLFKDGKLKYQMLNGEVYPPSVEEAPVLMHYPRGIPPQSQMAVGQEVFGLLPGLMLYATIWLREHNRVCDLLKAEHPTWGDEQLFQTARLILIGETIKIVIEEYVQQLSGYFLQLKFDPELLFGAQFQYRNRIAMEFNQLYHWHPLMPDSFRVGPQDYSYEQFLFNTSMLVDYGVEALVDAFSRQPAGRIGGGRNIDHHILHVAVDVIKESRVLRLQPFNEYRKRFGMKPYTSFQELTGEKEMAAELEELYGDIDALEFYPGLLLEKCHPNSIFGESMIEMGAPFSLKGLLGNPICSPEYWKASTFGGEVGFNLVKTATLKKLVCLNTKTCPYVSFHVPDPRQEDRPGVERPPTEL
pIC50: −log10 of the molar value.
reportedMetric: pIC50

compound="CC1=C(CC(=O)O)c2cc(F)ccc2/C1=C\\c1ccc([S+](C)[O-])cc1 (stereo not shown) [Sulindac sulfoxide, sulindac]" endpointresult="< 3.52"

----------
# Test system: cGMP PDE in HT-29 human colon tumor cell lysates
# protocolSummary: cGMP PDE scintillation proximity assay in HT-29 lysate
# Assay type: biochemical
# conditionParameters: read-out: IC50 cGMP PDE; scintillation proximity assay, HT-29 cell lysates
reportedMetric: IC50 (µM)

molecule=COc1ccc2c(c1)c(CC(=O)O)c(C)n2C(=O)c1ccc(Cl)cc1 reportedmetric=IC50 limitqualifier== endpointresult=24
molecule=CS(=O)(=O)c1ccc(C2=C(c3ccccc3)C(=O)OC2)cc1 reportedmetric=IC50 limitqualifier=> endpointresult=300
molecule=CC1=C(CC(=O)O)c2cc(F)ccc2/C1=C\c1ccc(S(C)(=O)=O)cc1 reportedmetric=IC50 limitqualifier== endpointresult=95.9
molecule="CC1=C(CC(=O)O)c2cc(F)ccc2/C1=C\\c1ccc([S+](C)[O-])cc1 (centres unmarked) [Sulindac sulfoxide, sulindac]" reportedmetric=IC50 limitqualifier== endpointresult=120
molecule="CSc1ccc(/C=C2/C(C)=C(CC(=O)O)c3cc(F)ccc32)cc1 [Sulindac sulfide, sulindac sulfide]" reportedmetric=IC50 limitqualifier== endpointresult=19.7

----------
# Test system: HT-29, SW480, and HCT116 human colon cancer cell lines
# protocolSummary: Cell Titer Glo growth assay, colon tumor cell lines
# Assay type: cell-based
# conditionParameters: HT-29; NSAID panel
reportedMetric: HT-29 growth inhibition

chemicalstring=CN1C(C(=O)Nc2ccccn2)=C(O)c2ccccc2S1(=O)=O measuredtarget="HT-29, SW480, and HCT116 human colon cancer cell lines" reportedmetric="HT-29 growth inhibition" endpointresult="low potency"
chemicalstring=CCCCC1C(=O)N(c2ccccc2)N(c2ccccc2)C1=O measuredtarget="HT-29, SW480, and HCT116 human colon cancer cell lines" reportedmetric="HT-29 growth inhibition" endpointresult="low potency"
chemicalstring=CC(=O)Oc1ccccc1C(=O)O measuredtarget="HT-29, SW480, and HCT116 human colon cancer cell lines" reportedmetric="HT-29 growth inhibition" endpointresult="low potency"
